Tested on: Hs 934.T
assay.text: cells
Parameters: species or system panel of human cancer cell lines; Eurofins OncoPanel proliferation; nuclei count by high-content fluorescence imaging, 10-point dose response
study.conditions: 72 h; cell count, curve inflection point, 3 days
measured.parameter: EC50

* C[C@@H]1CC(=O)NN=C1c1ccc(NN=C(C#N)C#N)cc1 | > 100 µM

###

System: SCaBER
assay.text: cells
Design: species or system panel of human cancer cell lines; Eurofins OncoPanel proliferation; nuclei count by high-content fluorescence imaging, 10-point dose response
study.conditions: Homo sapiens, SCaBER, 72 h; cell count, curve inflection point, 3 days
measured.parameter: EC50 (µM)

• C[C@@H]1CC(=O)NN=C1c1ccc(NN=C(C#N)C#N)cc1 = 60.4
